These measurements were taken from patent US5882881A.

Parameter Cyst Size: see the listing below.
tested on: Murine CPK Cells; test: In vitro cyst formation and cyst size in suspension culture of murine CPK cells; assay type: cell-based, mouse; settings: mean ± SD of twenty cysts; concentrations as in Table II; control 71 ± 22
Give the value in μm but do not write μm after it.

Illustrative cases are given below, each with its answer.
>  <molecule>
C[C@@H]1O[C@@H](O[C@H]2C[C@@H](O)[C@]3(CO)[C@H]4[C@H](O)C[C@]5(C)[C@@H](C6=CC(=O)OC6)CC[C@]5(O)[C@@H]4CC[C@]3(O)C2)[C@H](O)[C@H](O)[C@H]1O

>  <target_entity>
Murine CPK Cells

>  <Cyst Size / μm>
0

$$$$
>  <molecule>
CC(=O)O[C@H]1C(=O)[C@@]2(C)[C@H]([C@H](OC(=O)c3ccccc3)[C@]3(O)C[C@H](OC(=O)[C@H](O)[C@@H](NC(=O)c4ccccc4)c4ccccc4)C(C)=C1C3(C)C)[C@]1(OC(C)=O)CO[C@@H]1C[C@@H]2O

>  <target_entity>
Murine CPK Cells

>  <Cyst Size / μm>
0

$$$$
>  <molecule>
Nc1ccn([C@@H]2O[C@H](CO)[C@@H](O)[C@@H]2O)c(=O)n1 [Cytosine arabinoside, cytosine arabinoside]

>  <target_entity>
Murine CPK Cells

>  <Cyst Size / μm>
70

$$$$

query: // query Cyst Size value for entry C=C1C(C)C2C(Cc3ccccc3)NC(=O)C23C(OC(C)=O)/C=C/C(C)(O)C(=O)C(C)C/C=C/C3C1O (stereo not shown)
result: 0
